Values were extracted from the supplement of paper PMC10567573.

The reader will find reported protein stability index values listed item by item below.
- procedure_summary: protein stability index of a GFP-peptide fusion (GPS, HEK-293T) (PSI 1-6); higher = more stable;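 note: 24-mer peptide tiles fused after GFP, lentivirally expressed, FACS-sorted into six equal bins by GFP/DsRed ratio, decoded by Illumina sequencing, PSI is the read-weighted mean bin number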
- run_parameters: treatment: MLN4924 1 uM, 8 h; c terminus: a fixed tail appended
// return just the number, without any unit appended

ordered_residues="PMDVYETGIEYIVAQGPTNQGLNV [ADAMTSL2]" data_value=3.54
ordered_residues="TGYLSSMVGLILGPFGVNHGVELH [PCMTD2]" data_value=2.78
ordered_residues="TLALEYTYGRRAKGHNTPKDIAHF [DYNC2LI1]" data_value=2.83
ordered_residues="GVGGWRDYGVDPSQFSGTLMRTCE [PPTC7]" data_value=3.28
ordered_residues="ALTRLERHLERKAWVANFERPRMN [CRY1]" data_value=2.66
ordered_residues="HVYIGSAGLDWQSLGQMKELGVIF [PLD5]" data_value=2.58

Would you kindly look at the next entry?
Field protein stability index (entry LTPGQSDSAKREVKQKISPYFKSN [FAN1] ) reads 3.97

----------
- procedure_summary: protein stability index of a GFP-peptide fusion (GPS, HEK-293T) (PSI 1-6); higher = more stable
- run_parameters: treatment: DMSO; c terminus: a fixed tail appended
Listed here are sequences together with their documented protein stability index.
// keep it numeric: no unit symbol after the value

Per the record, SSDKVRGIETLESVPIIGGFWETI [PHTF1] has protein stability index of 2.56

The reported protein stability index of the sequence EVQDLLEGCELPDLPSSLLLPEDM [SMG5] was 4.5

Memo: LRQHGPPNIVVAIAGNKCDLIDVR [RAB22A] , reported protein stability index: 2.46

Given item RQSYDISIVAQVDQTGSKSSNLLD [CARM1] , the value recorded as its protein stability index is 3.93

The recorded protein stability index for entry PVFNAMFEHEMEESKKNRVEINDL [SPOPL] equals 4.26

The recorded protein stability index for entry RDPAAGAAPFRFVARPVRFPREHQ [ZNF511] equals 2.61

Noted for LESELLRGTQYSSLDSLDGLSLTD [PSD2] : its protein stability index reads 4.53

Just so you know, measured protein stability index for FEWTDSPNTAVSVHVSESSDDDEE [ACBD3] came out at 5.53

get_value(item= VAFRGLKGKKLYPVVSAVWGHCEV [SPSB4] , readout=protein stability index) returns 1.83

The reported protein stability index of the sequence ESYPEDTVFYIPEDHKPGTFPKAL [DLC1] was 4.13

Sample VPIDIFSEEIRFYQLGEEAMEKFR [KCNA3] ; protein stability index observed: 3.14

In plain terms, ATDYLRYKPVVLLQGLSLIVTWFM [SLC19A2] has a documented protein stability index of 2.35

// recorded protein stability index for EGRGPVTPLHLDLTQLHRLSLESS [PLEKHN1] : 3.4

Per the records, this sequence ( ECGHNFCKACITRWWEDLERDFPC [TRIM39] ) has protein stability index equal to 2.97

----------
- procedure_summary: protein stability index of a GFP-peptide fusion (GPS, HEK-293T) (PSI 1-6); higher = more stable
- run_parameters: treatment: MLN4924 1 uM, 8 h; c terminus: a fixed tail appended
1 means recorded protein stability index is 4 or above; -1 means it is below 4.

Here are 5 sequences together with their reported answers.
ordered_residues="IGEEVRQLMEKLREKQLSHSLRAV [BEX1]" qualitative_label=-1
ordered_residues="SLKLALLFYILTFVGAIFNGLTLL [RTN2]" qualitative_label=-1
ordered_residues="YSLAEDTIQGVPLSSYISINSDTG [PCDHGA10]" qualitative_label=-1
ordered_residues="WNDCISSGLRGGILIELAMRGRIY [GOLPH3L]" qualitative_label=-1
ordered_residues="HDIIKHPMDLSTVKRKMDGREYPD [BRD3]" qualitative_label=1

Does the reported protein stability index for VFDSEKCVSIPDVVGWFVLFYKPG [GULP1] fall at or above the 4 mark?
-1

For this sequence, is measured protein stability index 4 or higher? EQQRIIAILLDAHHKTYDPTYSDF [VDR]
-1

Is it the case that NVHFKEETVKLFICELVMALDYLQ [STK32A] has protein stability index reaching or exceeding 4?
-1

Is protein stability index for QGKADGLYPNPRERSSFYSCAGGR [CHIT1] at or above 4?
-1

----------
- procedure_summary: protein stability index of a GFP-peptide fusion (GPS, HEK-293T) (PSI 1-6); higher = more stable
- run_parameters: treatment: DMSO; c terminus: a fixed tail appended
Mark fulfilled for reported protein stability index of 4 or greater; mark not fulfilled for anything smaller.

Answered examples (2):
ordered_residues="DGSGMPKTMQSEETRVWHRRDGKW [CAMK2D]" qualitative_label=fulfilled
ordered_residues="ARYGHLDMVEFLLEQCSASIEVGG [FEM1C]" qualitative_label="not fulfilled"

Reported protein stability index reaches at least 4 for SERAEVQRLEEQERRHREEKERRK [RSPH3] ?
fulfilled

Answer whether protein stability index of FKCNYCGKSFRQRPSLVIHLRIHT [ZNF449] is greater than or equal to 4.
not fulfilled

Please tell me: is the sequence DQEAVCLICAISHTHRAHTVVPLD [TRIM39] at or over 4 in terms of protein stability index?
not fulfilled

Reported protein stability index reaches at least 4 for EVKIEEPVSMEMDNHMSDKDESCY [INTS3] ?
fulfilled

----------
- procedure_summary: protein stability index of a GFP-peptide fusion (GPS, HEK-293T) (PSI 1-6); higher = more stable
- run_parameters: treatment: DMSO; c terminus: a fixed tail appended
Outcome: true for protein stability index of at least 5; false for anything lower.

These recorded examples may help you get a feel for the data.
ordered_residues="NTQTEELNQQVVSSSEQLQCCQTE [KRT36]" qualitative_label=true
ordered_residues="KILLTKSENARLVLQIDNAKLAAD [KRT36]" qualitative_label=false
ordered_residues="LGESKEHMESRMVTETEETQEKKA [SDE2]" qualitative_label=true
ordered_residues="ERAKREMVMYSITVAFWLLNSWLW [MFF]" qualitative_label=false
ordered_residues="CYSEEITVCGDLHGQLDDLIFIFY [PPEF2]" qualitative_label=false

Tell me whether protein stability index is at least 5 here: CPEVKLKTTGLEEAAEAETAKDNG [SRPK2]
true

// inclusive: protein stability index at least 5? input: VFDSEKCVSIPDVVGWFVLFYKPG [GULP1]
false

State whether the measured protein stability index reaches 5, counting equality as reaching it, for PHDRSQGDWAPPPEGGMEQALAGA [ZNF263]
false

Does the sequence LEPLKAIIQYRLPMKKNNNLYSWD [ACSBG2] have recorded protein stability index that is 5 or more?
false

Dear colleague, could you confirm whether IRKERKRLKLMQQNPAGELEGFQA [ATE1] has protein stability index at or above 5?
false

Does the reported protein stability index for CHLFSTYVASHKIEKEEQEKKRKE [ACBD3] fall at or above the 5 mark?
false

Reported protein stability index at or above 5? RELLMNHRRGLGVDSKPELQRVLE [FAM107A]
false

----------
- procedure_summary: protein stability index of a GFP-peptide fusion (GPS, HEK-293T) (PSI 1-6); higher = more stable
- run_parameters: treatment: DMSO; c terminus: a fixed tail appended
Label scheme for protein stability index: lower than 4 is Not met, 4 and above is Met.

The examples below pair each entry with its known result.
ordered_residues="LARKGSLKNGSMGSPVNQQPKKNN [FAM219A]" qualitative_label=Met
ordered_residues="LGETKAYVFFEKDFGDMHSYVRSR [TRIB1]" qualitative_label="Not met"
ordered_residues="LACWTYGISVPSGLFVPSLLCGAA [CLCN6]" qualitative_label="Not met"
ordered_residues="QICGTHRQTKKMFCDMDKSLLCLL [TRIM43]" qualitative_label="Not met"
ordered_residues="ESDDAFDTVTIPVPSEEPQESDQT [IQUB]" qualitative_label=Met
ordered_residues="SPPLSTEAHFMLQVADINDNPPTF [PCDHGA10]" qualitative_label="Not met"
ordered_residues="EIILYWKHSTIFDVGENLTVPDEF [SLC25A25]" qualitative_label="Not met"
ordered_residues="TNDRTASQGQWGRAWEVDWFSLAS [DHCR7]" qualitative_label="Not met"

Given CMWSKKCSGVACLVKDNPQRSYFL [WASL] , state whether its protein stability index is at least 4.
Not met

For this sequence, is measured protein stability index 4 or higher? ENRTLQVLRAEHRGFQEENKALWE [CBY2]
Met

Quick check: does RGEALGLVGAQAPATEEQEAASSS [MAGEA3] have protein stability index greater than or equal to 4?
Met

----------
- procedure_summary: protein stability index of a GFP-peptide fusion (GPS, HEK-293T) (PSI 1-6); higher = more stable
- run_parameters: treatment: MLN4924 1 uM, 8 h; c terminus: a fixed tail appended
protein stability index of 3 or higher: Condition met. Under 3: Condition not met.

ordered_residues="ARYGHLDMVEFLLEQCSASIEVGG [FEM1C]" qualitative_label="Condition not met"
ordered_residues="SGPPASYCAKLCEPQWFYEETESS [C8orf76]" qualitative_label="Condition met"
ordered_residues="EDNLEDDDVEMKNGITQGDKLRAL [CDC14A]" qualitative_label="Condition met"
ordered_residues="GHEEWVGSAYLFVESSLDKVVLSD [TRADD]" qualitative_label="Condition not met"

For this sequence, is measured protein stability index 3 or higher? WLVHRDPEGSVSGSQPNSGLALES [NFE2L1]
Condition met

Threshold query (protein stability index >= 3) on QIQEFKEAFTLMDQNRDGFIDKED [MYL5]
Condition met

Could you please find out whether LVGAQAPATEEQEAASSSSTLVEV [MAGEA3] has protein stability index that meets 3 or exceeds it?
Condition met
